Target: FGFR3 (V555M) (Homo sapiens, UniProt P22607, V555M)
Construct: made in house; host or cells: E. coli (BL21-derived), T7 phage
Sequence (P22607 23-806 V555M): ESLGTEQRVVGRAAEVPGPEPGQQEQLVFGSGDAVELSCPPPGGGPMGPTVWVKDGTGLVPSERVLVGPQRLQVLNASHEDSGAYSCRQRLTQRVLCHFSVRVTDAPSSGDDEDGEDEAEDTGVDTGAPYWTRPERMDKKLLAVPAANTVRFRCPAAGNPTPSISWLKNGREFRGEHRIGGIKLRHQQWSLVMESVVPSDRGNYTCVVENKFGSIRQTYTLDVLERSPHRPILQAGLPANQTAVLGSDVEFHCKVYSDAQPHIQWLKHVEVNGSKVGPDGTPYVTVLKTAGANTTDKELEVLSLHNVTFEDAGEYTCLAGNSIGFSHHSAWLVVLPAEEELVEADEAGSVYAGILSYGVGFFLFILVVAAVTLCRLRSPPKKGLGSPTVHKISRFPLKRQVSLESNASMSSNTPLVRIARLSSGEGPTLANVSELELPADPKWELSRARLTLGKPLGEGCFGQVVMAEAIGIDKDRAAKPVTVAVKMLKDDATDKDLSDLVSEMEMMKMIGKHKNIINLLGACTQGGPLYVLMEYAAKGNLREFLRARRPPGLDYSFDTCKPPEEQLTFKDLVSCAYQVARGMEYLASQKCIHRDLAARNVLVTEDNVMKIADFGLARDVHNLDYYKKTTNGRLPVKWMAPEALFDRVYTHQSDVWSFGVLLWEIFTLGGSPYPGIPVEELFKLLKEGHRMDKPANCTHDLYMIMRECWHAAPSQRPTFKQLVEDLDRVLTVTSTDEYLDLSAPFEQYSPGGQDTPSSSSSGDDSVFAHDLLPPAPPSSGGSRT
Assay: Kinase binding assay (kinase-tagged T7 phage, affinity beads, qPCR), Kd
Details: V555M mutant; read-out: FGFR3 (V555M) (Kd nM)
Counter-ions that a name gives are not always drawn.

molecule: C[C@@H](Oc1ccc2[nH]nc(-c3ccc(N4CC(C)(N5CC(C)(O)C5)C4)nc3)c2c1)c1c(Cl)cncc1Cl
Kd: 1 to 50 nM
//
molecule: C[C@@H](Oc1ccc2[nH]nc(-c3cnc(N4CC(C)(NCCO)C4)c(C#N)c3)c2c1F)c1c(Cl)cncc1Cl
Kd: 300 to 1000 nM
//
molecule: Cc1ncc(Cl)c([C@@H](C)Oc2ccc3[nH]nc(-c4cnc(N5CC(C)(CS(C)(=O)=O)C5)c(F)c4)c3c2)c1Cl
Kd: 1 to 50 nM
//
molecule: COc1cc2[nH]nc(-c3cnc(N4CC(C)(NCC5CC5)C4)nc3)c2cc1O[C@H](C)c1c(Cl)cncc1Cl
Kd: 1 to 50 nM
//
molecule: C[C@@H](Oc1cc2c(-c3cnc(N4CC(C)(CP(C)(C)=O)C4)c(F)c3)n[nH]c2cc1F)c1c(Cl)cncc1Cl
Kd: 1 to 50 nM
//
molecule: CC(C)NCC1(C)CN(c2ccc(-c3n[nH]c4cc(F)c(O[C@H](C)c5c(Cl)cncc5Cl)cc34)cn2)C1
Kd: 1 to 50 nM
//
molecule: COc1cc2[nH]nc(-c3cnc(N4CC(C)(NC(C)C)C4)c(C#N)c3)c2cc1O[C@@H](C)c1c(Cl)cncc1Cl
Kd: 50 to 300 nM
//
molecule: C[C@@H](Oc1ccc2[nH]nc(-c3cnc(N4CC(C)(C(=O)NCCO)C4)c(F)c3)c2c1)c1c(Cl)cncc1Cl
Kd: 1 to 50 nM
//
molecule: C[C@@H](Oc1ccc2[nH]nc(-c3cnc(N4CC(C)(NC(=O)CN(C)C)C4)c(F)c3)c2c1)c1c(Cl)cncc1Cl (stereo in doubt)
Kd: 1 to 50 nM
//
molecule: C[C@@H](Oc1ccc2[nH]nc(-c3cnc(N4C[C@@H](CS(C)(=O)=O)[C@@H]4C)c(F)c3)c2c1)c1c(Cl)cncc1Cl
Kd: 1 to 50 nM
//
molecule: CCNC1(C)CN(c2ncc(-c3n[nH]c4cc(OC)c(O[C@H](C)c5c(Cl)cncc5Cl)cc34)cc2C#N)C1 [Example 341, HCl]
Kd: 1 to 50 nM
//
molecule: C[C@@H](Oc1ccc2[nH]nc(-c3cnc(N4CC(C)(NCC5(O)CC5)C4)c(F)c3)c2c1)c1c(Cl)cncc1Cl
Kd: 1 to 50 nM
//
molecule: C[C@@H](Oc1cc2c(-c3cnc(N4CC5(CC5)C4)nc3)n[nH]c2cc1F)c1c(Cl)cncc1Cl
Kd: 1 to 50 nM
//
molecule: C[C@@H](Oc1cc2c(-c3cnc(N4CC(C)(CP(C)(C)=O)C4)c(C#N)c3)n[nH]c2cc1F)c1c(Cl)cncc1Cl
Kd: 1 to 50 nM
//
molecule: COc1cc2[nH]nc(-c3cnc(N4C[C@H](CS(C)(=O)=O)[C@H]4C)c(C#N)c3)c2cc1O[C@@H](C)c1c(Cl)cncc1Cl
Kd: 300 to 1000 nM
//
molecule: COc1cc2[nH]nc(-c3cnc(N4CC(C)(CNC(C)C)C4)nc3)c2cc1O[C@H](C)c1c(Cl)cncc1Cl
Kd: 1 to 50 nM
//
molecule: C[C@H]1CN(C2(C)CN(c3ncc(-c4n[nH]c5ccc(O[C@H](C)c6c(Cl)cncc6Cl)cc45)cc3F)C2)CCO1
Kd: 1 to 50 nM
//
molecule: C[C@@H](Oc1ccc2[nH]nc(-c3cnc(N4CC(C)(CS(C)(=O)=O)C4)c(F)c3)c2c1F)c1c(Cl)cncc1Cl
Kd: 50 to 300 nM
//
molecule: C[C@@H](Oc1cc2c(-c3cnc(N4CC(C)(N5CCOCC5)C4)c(F)c3)n[nH]c2cc1F)c1c(Cl)cncc1Cl
Kd: 1 to 50 nM
//
molecule: C[C@@H](Oc1ccc2[nH]nc(-c3cnc(N4CC(C)(N(C)C)C4)c(C#N)c3)c2c1)c1c(Cl)cncc1Cl
Kd: 1 to 50 nM
//
molecule: COc1cc2[nH]nc(-c3cnc(N4CC5(CC5)C4)nc3)c2cc1O[C@H](C)c1c(Cl)cncc1Cl
Kd: 1 to 50 nM
//
molecule: CC(C)NC1(C)CN(c2ncc(-c3n[nH]c4ccc(O[C@H](C)c5c(Cl)cncc5Cl)c(F)c34)cc2C#N)C1
Kd: 300 to 1000 nM
//
molecule: C[C@@H](Oc1ccc2[nH]nc(-c3cnc(N4CC(C)(CN5CCCC5)C4)c(F)c3)c2c1F)c1c(Cl)cncc1Cl
Kd: 50 to 300 nM
//
molecule: CCNC1(C)CN(c2ccc(-c3n[nH]c4ccc(O[C@H](C)c5c(Cl)cncc5Cl)cc34)cn2)C1
Kd: 1 to 50 nM
//
molecule: C[C@@H](Oc1ccc2[nH]nc(-c3cnc(N4CC(C)(N5CCOCC5)C4)c(F)c3)c2c1)c1c(Cl)cncc1Cl
Kd: 1 to 50 nM
//
molecule: COc1cc2[nH]nc(-c3cnc(N4CC(C)(N(C)C)C4)nc3)c2cc1O[C@H](C)c1c(Cl)cncc1Cl
Kd: 1 to 50 nM
//
molecule: C[C@@H](Oc1ccc2[nH]nc(-c3cnc(N4CC(C)(NCC5CC5)C4)c(F)c3)c2c1F)c1c(Cl)cncc1Cl
Kd: 50 to 300 nM

====

Target: FGFR1 (Homo sapiens)
Construct: made in house; host or cells: E. coli (BL21-derived), T7 phage
Sequence (P11362 22-822): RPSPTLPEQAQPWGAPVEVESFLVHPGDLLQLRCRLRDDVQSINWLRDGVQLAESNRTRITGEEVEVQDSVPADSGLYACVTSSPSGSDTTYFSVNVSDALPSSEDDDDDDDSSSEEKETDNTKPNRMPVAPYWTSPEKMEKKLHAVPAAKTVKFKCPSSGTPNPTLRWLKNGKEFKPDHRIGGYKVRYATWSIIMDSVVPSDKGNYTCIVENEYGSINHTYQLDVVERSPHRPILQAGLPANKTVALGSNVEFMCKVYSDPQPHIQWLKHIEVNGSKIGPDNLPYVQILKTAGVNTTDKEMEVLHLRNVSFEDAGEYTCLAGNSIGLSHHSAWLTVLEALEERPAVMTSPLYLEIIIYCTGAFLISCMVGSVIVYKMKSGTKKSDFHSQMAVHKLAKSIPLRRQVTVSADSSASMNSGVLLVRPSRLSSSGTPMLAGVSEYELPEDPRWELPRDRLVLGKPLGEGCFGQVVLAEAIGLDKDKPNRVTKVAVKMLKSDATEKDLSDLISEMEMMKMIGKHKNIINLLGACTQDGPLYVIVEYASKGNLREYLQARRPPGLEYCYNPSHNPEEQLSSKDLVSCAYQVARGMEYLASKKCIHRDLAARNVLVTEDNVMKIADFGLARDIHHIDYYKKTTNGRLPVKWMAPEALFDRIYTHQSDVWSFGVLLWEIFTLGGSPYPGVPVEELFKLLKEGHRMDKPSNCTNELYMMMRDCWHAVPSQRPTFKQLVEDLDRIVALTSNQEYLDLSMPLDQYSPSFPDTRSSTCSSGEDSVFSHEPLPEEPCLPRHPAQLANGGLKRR
Assay: Kinase binding assay (kinase-tagged T7 phage, affinity beads, qPCR), Kd
Settings: read-out: FGFR1 (Kd nM)
Below: a set of entries, each annotated with reported Kd.

record_smiles: COc1cc2[nH]nc(-c3cnc(N4CC(C)(N5CCC5)C4)c(C#N)c3)c2cc1O[C@H](C)c1c(Cl)cncc1Cl
Kd: 1 to 50 nM
--
record_smiles: COc1cc2[nH]nc(-c3cnc(N4CC(C)(C)C4)nc3)c2cc1O[C@H](C)c1c(Cl)cncc1Cl
Kd: 1 to 50 nM
--
record_smiles: C[C@@H](Oc1ccc2[nH]nc(-c3cnc(N4CC(C)(CN5CCCC5)C4)c(C#N)c3)c2c1)c1c(Cl)cncc1Cl
Kd: 50 to 300 nM
--
record_smiles: C[C@@H](Oc1ccc2[nH]nc(-c3ccc(N4CC(N)(CC5CC5)C4)nn3)c2c1)c1c(Cl)cncc1Cl
Kd: 1 to 50 nM

====

Below: a set of entries, each annotated with reported Kd.
Molecular target: FGFR4 (Homo sapiens)
Construct: made in house; host or cells: E. coli (BL21-derived), T7 phage
Sequence (P22455 22-802): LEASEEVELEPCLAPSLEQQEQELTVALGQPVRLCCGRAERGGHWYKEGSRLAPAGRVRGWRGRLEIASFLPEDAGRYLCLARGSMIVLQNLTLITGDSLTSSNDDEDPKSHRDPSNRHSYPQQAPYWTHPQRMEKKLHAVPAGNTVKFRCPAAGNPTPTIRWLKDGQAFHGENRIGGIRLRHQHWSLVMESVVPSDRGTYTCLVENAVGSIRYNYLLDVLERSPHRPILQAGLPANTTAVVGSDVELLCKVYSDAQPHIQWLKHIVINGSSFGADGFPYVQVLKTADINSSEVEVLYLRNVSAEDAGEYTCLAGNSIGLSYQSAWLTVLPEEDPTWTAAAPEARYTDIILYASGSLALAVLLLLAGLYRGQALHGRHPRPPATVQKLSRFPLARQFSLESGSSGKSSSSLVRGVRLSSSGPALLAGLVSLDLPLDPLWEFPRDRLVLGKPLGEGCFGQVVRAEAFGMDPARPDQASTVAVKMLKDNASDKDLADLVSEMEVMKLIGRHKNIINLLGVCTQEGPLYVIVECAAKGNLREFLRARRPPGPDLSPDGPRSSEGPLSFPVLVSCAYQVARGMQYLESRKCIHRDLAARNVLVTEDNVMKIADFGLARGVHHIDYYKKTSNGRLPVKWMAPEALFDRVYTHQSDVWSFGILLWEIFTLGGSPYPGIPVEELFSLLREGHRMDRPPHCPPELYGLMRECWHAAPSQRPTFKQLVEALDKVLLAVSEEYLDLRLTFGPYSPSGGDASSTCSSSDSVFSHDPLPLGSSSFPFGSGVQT
Test: Kinase binding assay (kinase-tagged T7 phage, affinity beads, qPCR), Kd
Conditions: read-out: FGFR4 (Kd nM)
result_type: Kd

record_smiles: C[C@H](Oc1ccc2[nH]nc(-c3cnc(N4CC(C)(N(C)C)C4)c(F)c3)c2c1)c1c(Cl)cncc1Cl
result_type: Kd
experimental_result: 300 to 1000 nM
//
record_smiles: C[C@@H](Oc1ccc2[nH]nc(-c3cnc(N4CC(C)(NCC5CC5)C4)c(C#N)c3)c2c1F)c1c(Cl)cncc1Cl
result_type: Kd
experimental_result: 50 to 300 nM
//
record_smiles: C[C@@H](Oc1ccc2[nH]nc(-c3cnc(N4CC(C)(N5C[C@H]6C[C@@H]5CO6)C4)c(F)c3)c2c1)c1c(Cl)cncc1Cl
result_type: Kd
experimental_result: 1 to 50 nM

====

Below: a set of entries, each annotated with reported IC50.
Tested on: KG-1 cell line (FGFR 1-fusion)
Assay: Cancer cell line cell viability assay (Cell Titer-Glo), 72 hr
Format: cell-based
Details: Homo sapiens, KG-1, KG-1 cell line (FGFR1-fusion)

record_smiles: C[C@@H](Oc1ccc2[nH]nc(-c3ccc(N4CC(N)(Cc5ccn(C)n5)C4)nn3)c2c1)c1c(Cl)cncc1Cl
IC50: 200 to 1000 nM
//
record_smiles: C[C@@H](Oc1ccc2[nH]nc(-c3ccc(N4CC(C)(N5C[C@@H]6C[C@H]5CO6)C4)nc3)c2c1)c1c(Cl)cncc1Cl
IC50: 50 to 200 nM
//
record_smiles: C[C@@H](Oc1ccc2[nH]nc(-c3cnc(N4CC(CC#N)(NCC5CC5)C4)c(F)c3)c2c1)c1c(Cl)cncc1Cl
IC50: 50 to 200 nM
//
record_smiles: CC(C)NCC1(C)CN(c2ncc(-c3n[nH]c4ccc(O[C@H](C)c5c(Cl)cncc5Cl)cc34)cc2C#N)C1
IC50: 50 to 200 nM
//
record_smiles: C[C@@H](Oc1ccc2[nH]nc(-c3ccc(N4CC(C)(OCC(C)(C)O)C4)nc3)c2c1)c1c(Cl)cncc1Cl
IC50: 50 to 200 nM
//
record_smiles: CC(C)CNC1(C)CN(c2ccc(-c3n[nH]c4ccc(O[C@H](C)c5c(Cl)cncc5Cl)cc34)nn2)C1
IC50: 50 to 200 nM
//
record_smiles: C[C@@H](Oc1ccc2[nH]nc(-c3cnc(N4CC(C)(N5CCC5)C4)c(C#N)c3)c2c1)c1c(Cl)cncc1Cl
IC50: 50 to 200 nM
//
record_smiles: CC(C)CNC1(C)CN(c2ccc(-c3n[nH]c4ccc(O[C@H](C)c5c(Cl)cncc5Cl)cc34)cn2)C1
IC50: 50 to 200 nM
//
record_smiles: C[C@@H](Oc1ccc2[nH]nc(-c3cnc(N4CC(C)(NC(=O)CN(C)C)C4)c(C#N)c3)c2c1)c1c(Cl)cncc1Cl
IC50: 200 to 1000 nM
//
record_smiles: C[C@@H](Oc1ccc2[nH]nc(-c3cnc(N4CC(C)(N(C)CC5CC5)C4)c(F)c3)c2c1)c1c(Cl)cncc1Cl
IC50: 200 to 1000 nM
//
record_smiles: C[C@@H](Oc1ccc2[nH]nc(-c3cnc(N4CC(C)(CN5CCOCC5)C4)c(F)c3)c2c1)c1c(Cl)cncc1Cl
IC50: 50 to 200 nM
//
record_smiles: COc1cc2[nH]nc(-c3cnc(N4CC(C)(N5CCOCC5)C4)c(C#N)c3)c2cc1O[C@H](C)c1c(Cl)cncc1Cl
IC50: 50 to 200 nM
//
record_smiles: COc1cc2[nH]nc(-c3cnc(N4CC(CC#N)(NC(C)C)C4)c(C#N)c3)c2cc1O[C@H](C)c1c(Cl)cncc1Cl
IC50: 200 to 1000 nM
//
record_smiles: C=CCNC1(C)CN(c2ncc(-c3n[nH]c4ccc(O[C@H](C)c5c(Cl)cncc5Cl)cc34)cc2F)C1
IC50: 50 to 200 nM

All figures here come from patent US20250368666A1.
